# TARGET_OR_TEST_SYSTEM: T1, human serum albumin (human, UniProt P02768 25-609)
# T1 construct: Bought from Sigma (A4327); also called HSA
# PROCEDURE_SUMMARY: SPR (ProteOn XPR-36), albumin immobilized, ABDCon as analyte
Ends that are not written are not given here.
VALUE_TYPE: Kd (nM)
All answers are understood in nM, so give the number only.

Input: # query: Kd of entry LKEAKEKAIEELKKAGITSDYYFDLINKAKTVEGVNALKDEILKA (designed binder, not fully specified (N-terminus), Expressed in E. coli with an N-terminal 8-His tag; measured mass 6383 Da; not shown: N-terminal 8-His tag) [ABDCon (non-natural albumin binding domain consensus)]
Output: 0.0748

Values were extracted from patent US20160083436A1.
